target: Dual specificity protein kinase CLK1 (Mus musculus); assay: Inhibition of recombinant mouse CLK1 expressed in bacteria assessed as enzyme residual activity using GRSRSRSRSRSR as substrate at 1 uM incubated for 30 mins in presence of ATP by ADP-Glo kinase assay
Label key: Satisfied means Activity under 70%; Not satisfied means Activity of 70% or more.

Answered cases to consult:
Request: Would you kindly verify if Activity of Nc1nccc(-c2c[nH]c3cc4cnccc4cc23)n1 is strictly less than 70%?
Response: Satisfied

Request: Would you kindly verify if Activity of ON=Cc1c[nH]c2cc3cnccc3cc12 is strictly less than 70%?
Response: Satisfied

Request: Would you kindly verify if Activity of Cn1cc(I)c2cc3ccncc3cc21 is strictly less than 70%?
Response: Satisfied

Request: Would you kindly verify if Activity of CC(=O)c1c[nH]c2cc3cnccc3cc12 is strictly less than 70%?
Response: Satisfied

Request: Would you kindly verify if Activity of OCc1c[nH]c2cc3cnccc3cc12 is strictly less than 70%?
Response: Not satisfied

Request: Would you kindly verify if Activity of CNCc1c[nH]c2cc3cnccc3cc12 is strictly less than 70%?
Response: Not satisfied

Now for another entry.
Request: Would you kindly verify if Activity of c1ccc(-c2c[nH]c3cc4cnccc4cc23)cc1 is strictly less than 70%?
Response: Not satisfied
